Biological target: CaPGM (Candida albicans, UniProt A0A1D8PSA9)
Sequence (A0A1D8PSA9 1-560): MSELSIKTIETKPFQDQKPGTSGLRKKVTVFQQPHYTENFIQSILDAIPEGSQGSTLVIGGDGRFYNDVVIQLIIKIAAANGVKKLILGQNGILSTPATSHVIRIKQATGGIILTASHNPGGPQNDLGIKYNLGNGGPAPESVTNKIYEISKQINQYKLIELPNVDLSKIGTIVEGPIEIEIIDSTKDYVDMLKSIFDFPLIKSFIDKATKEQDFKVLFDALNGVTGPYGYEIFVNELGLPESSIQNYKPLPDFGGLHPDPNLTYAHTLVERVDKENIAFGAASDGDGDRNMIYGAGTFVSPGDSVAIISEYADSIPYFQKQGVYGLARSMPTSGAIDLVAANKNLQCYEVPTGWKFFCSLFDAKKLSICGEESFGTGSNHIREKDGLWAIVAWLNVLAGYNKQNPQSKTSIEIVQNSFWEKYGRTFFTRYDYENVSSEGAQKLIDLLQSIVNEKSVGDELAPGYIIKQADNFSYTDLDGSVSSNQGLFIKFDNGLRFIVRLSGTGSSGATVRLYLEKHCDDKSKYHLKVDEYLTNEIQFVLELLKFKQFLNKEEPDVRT
experimentalReadout: pIC50
Scale: pIC50 equals -log10([C]), with [C] in mol/L.

Exercise: Item under review: O=c1ccsn1-c1cccc(Cl)c1F . Reported pIC50?
Solution: 5.30
